Quick list: selectivity ratio per entry.
Assay: Selectivity index, ratio of CC50 for human MT4 cells to EC50 for HIV1 3B
Assay type: toxicity, cell-based
Settings: read-out: Ratio CC50/EC50

Study these solved cases before continuing.
Cn1cc(C(=O)O)c(=O)c2ccc(N3CCN(c4nc5ccccc5o4)CC3)cc21; > 22
Nc1cc2c(=O)c(C(=O)O)c[nH]c2cc1N1CCN(c2ccccn2)CC1; 5
Cn1cc(C(=O)O)c(=O)c2ccc(N3CCN(c4nccs4)CC3)cc21; > 12
Cn1cc(C(=O)O)c(=O)c2cc(N)c(N3CCN(c4ccccn4)CC3)cc21; 15
Cn1ccc(=O)c2cc(N)c(N3CCN(c4ccccn4)CC3)cc21; < 1

Answer with the recorded selectivity ratio of Cc1cccc(Sc2cc3c(cc2N)c(=O)c(C(=O)O)cn3C)c1 only.
< 1

Answer with the recorded selectivity ratio of CO/N=C(\C)c1cn(C)c2cc(N3CCN(c4ccccn4)CC3)c(N)cc2c1=O only.
< 1

Answer with the recorded selectivity ratio of Nc1cc2c(=O)c(C(=O)O)c[nH]c2cc1N1CCN(c2cccc(C(F)(F)F)c2)CC1 only.
4

Answer with the recorded selectivity ratio of Cn1ccc(=O)c2cc(N)c(N3CCN(c4nccs4)CC3)cc21 only.
< 1

Answer with the recorded selectivity ratio of Cn1cc(C(=O)NCc2ccc(F)cc2F)c(=O)c2cc(N)c(N3CCN(c4ccccn4)CC3)cc21 only.
< 1

---

Test: Cytotoxicity against mock-infected human PBMC cells by trypan blue exclusion assay
Type: cell-based
# label = satisfied if CC50 < 1 µg/mL else not satisfied

Record excerpt, results attached:
Nc1cc2c(=O)c(C(=O)O)c[nH]c2cc1N1CCN(c2nc3ccccc3o2)CC1; not satisfied
Nc1cc2c(=O)c(C(=O)O)c[nH]c2cc1N1CCN(c2ccccn2)CC1; not satisfied
Cn1cc(C(=O)O)c(=O)c2ccc(N3CCN(c4nc5ccccc5s4)CC3)cc21; satisfied

Is 1 µg/mL strictly greater than the compound's reported CC50? compound: Cn1cc(C(=O)O)c(=O)c2ccc(N3CCN(c4ccccn4)CC3)cc21
not satisfied

Is 1 µg/mL strictly greater than the compound's reported CC50? compound: Cn1cc(C(=O)O)c(=O)c2cc(N)c(N3CCN(c4ccccn4)CC3)cc21
not satisfied

Is 1 µg/mL strictly greater than the compound's reported CC50? compound: Cn1cc(C(=O)O)c(=O)c2ccc(N3CCN(c4cccc(C(F)(F)F)c4)CC3)cc21
satisfied

Is 1 µg/mL strictly greater than the compound's reported CC50? compound: Nc1cc2c(=O)c(C(=O)O)c[nH]c2cc1N1CCN(c2nccs2)CC1
not satisfied

---

Test: Selectivity index, ratio of CC50 for human PBMC cells to EC50 for HIV1 3B
Format: toxicity, cell-based
Conditions: read-out: Ratio CC50/EC50
Quick list: selectivity ratio per entry.
Number only, please.

Study these solved cases before continuing.
Nc1cc2c(=O)c(C(=O)O)c[nH]c2cc1N1CCN(c2nc3ccccc3o2)CC1; 7
Nc1cc2c(=O)c(C(=O)O)c[nH]c2cc1N1CCN(c2ccccn2)CC1; 13
Cn1cc(C(=O)O)c(=O)c2cc(N)c(N3CCN(c4ccccn4)CC3)cc21; 29

Answer with the recorded selectivity ratio of Cn1cc(C(=O)O)c(=O)c2ccc(N3CCN(c4nc5ccccc5s4)CC3)cc21 only.
4

Answer with the recorded selectivity ratio of Nc1cc2c(=O)c(C(=O)O)c[nH]c2cc1N1CCN(c2nccs2)CC1 only.
10

Answer with the recorded selectivity ratio of Cn1cc(C(=O)O)c(=O)c2ccc(N3CCN(c4cccc(C(F)(F)F)c4)CC3)cc21 only.
2

---

Experiment: Selectivity index, ratio of CC50 for human CEM cells to EC50 for HIV2 ROD
Type: toxicity, cell-based, CCRF-CEM
Conditions: read-out: Ratio CC50/EC50
Entry flag: condition met if selectivity ratio reaches 30; condition not met if it does not.

Cn1cc(C(=O)O)c(=O)c2ccc(N3CCN(c4cccc(C(F)(F)F)c4)CC3)cc21; condition not met
Cn1cc(C(=O)O)c(=O)c2cc(N)c(N3CCN(c4ccccn4)CC3)cc21; condition met

# check: selectivity ratio of Nc1cc2c(=O)c(C(=O)O)c[nH]c2cc1N1CCN(c2nc3ccccc3o2)CC1 is greater than or equal to 30
condition not met

# check: selectivity ratio of Nc1cc2c(=O)c(C(=O)O)c[nH]c2cc1N1CCN(c2nccs2)CC1 is greater than or equal to 30
condition not met

---

Quick list: selectivity ratio per entry.
Test: Selectivity index, ratio of CC50 for human MT4 cells to EC50 for HIV2 ROD
Format: toxicity, cell-based
Conditions: read-out: Ratio CC50/EC50
Number only, please.

Cn1cc(C(=O)O)c(=O)c2cc(N)c(N3CCN(c4ccc5ccccc5n4)CC3)cc21; 10
Nc1cc2c(=O)c(C(=O)O)c[nH]c2cc1N1CCN(c2ccccn2)CC1; 14
Cn1cc(C(=O)O)c(=O)c2ccc(N3CCN(c4cnccn4)CC3)cc21; 8
Nc1cc2c(=O)c(C(=O)O)c[nH]c2cc1N1CCN(c2nc3ccccc3o2)CC1; 7
Cn1cc(C(=O)NCc2ccc(Cl)cc2)c(=O)c2cc(N)c(N3CCN(c4ccccn4)CC3)cc21; 1
Nc1cc2c(=O)c(C(=O)O)c[nH]c2cc1N1CCN(c2cccc(C(F)(F)F)c2)CC1; 4
Nc1cc2c(=O)c(C(=O)O)c[nH]c2cc1N1CCN(c2nccs2)CC1; 5
Cn1cc(C(=O)O)c(=O)c2cc(N)c(N3CCN(c4cnc5ccccc5n4)CC3)cc21; 17

Answer with the recorded selectivity ratio of Cn1cc(C(=O)O)c(=O)c2cc(N)c(N3CCN(c4ccccn4)CC3)cc21 only.
10

Answer with the recorded selectivity ratio of Cn1cc(C(=O)O)c(=O)c2ccc(N3CCN(c4nc5ccccc5s4)CC3)cc21 only.
5.5

Answer with the recorded selectivity ratio of Cn1cc(C(=O)O)c(=O)c2ccc(N3CCN(c4cccc(C(F)(F)F)c4)CC3)cc21 only.
21

---

Quick list: CC50 at 120 h per entry.
Assay: Cytotoxicity against mock-infected human MT4 cells after 5 days by MTT assay
Format: cell-based
Write the number in µg/mL without appending the unit.

Answer with the recorded CC50 at 120 h of Nc1cc2c(=O)c(C(=O)O)c[nH]c2cc1N1CCN(c2nccs2)CC1 only.
7.61

Answer with the recorded CC50 at 120 h of CO/N=C(\C)c1cn(C)c2cc(N3CCN(c4ccccn4)CC3)c(N)cc2c1=O only.
92.7

---

Quick list: selectivity ratio per entry.
Test: Selectivity index, ratio of CC50 for human MT4 cells to EC50 for HIV1 3B
Type: toxicity, cell-based
Conditions: read-out: Ratio CC50/EC50
Number only, please.

Answer with the recorded selectivity ratio of Cn1cc(C(=O)O)c(=O)c2ccc(N3CCN(c4cccc(C(F)(F)F)c4)CC3)cc21 only.
38

Answer with the recorded selectivity ratio of Nc1cc2c(=O)c(C(=O)O)c[nH]c2cc1N1CCN(c2nccs2)CC1 only.
7

Answer with the recorded selectivity ratio of Cn1cc(C(=O)O)c(=O)c2cc(N)c(N3CCN(c4cnc5ccccc5n4)CC3)cc21 only.
18

Answer with the recorded selectivity ratio of Nc1cc2c(=O)c(C(=O)O)c[nH]c2cc1N1CCN(c2nc3ccccc3o2)CC1 only.
11

Answer with the recorded selectivity ratio of Cn1cc(C(=O)O)c(=O)c2ccc(N3CCN(c4ccccn4)CC3)cc21 only.
3.4

Answer with the recorded selectivity ratio of Cn1cc(C(=O)O)c(=O)c2ccc(N3CCN(c4nc5ccccc5s4)CC3)cc21 only.
14.7

Answer with the recorded selectivity ratio of Cn1cc(C(=O)O)c(=O)c2cc(N)c(N3CCN(c4ccc5ccccc5n4)CC3)cc21 only.
6

---

Test: Cytotoxicity against mock-infected human CEM cells by Coulter counter
Format: cell-based
Conditions: mock-infected CEM (CCRF-CEM) cells
# label = satisfied if CC50 < 5 µg/mL else not satisfied

Cn1cc(C(=O)O)c(=O)c2ccc(N3CCN(c4nc5ccccc5s4)CC3)cc21; not satisfied
Cn1cc(C(=O)O)c(=O)c2cc(N)c(N3CCN(c4ccccn4)CC3)cc21; not satisfied
Cn1cc(C(=O)O)c(=O)c2ccc(N3CCN(c4cccc(C(F)(F)F)c4)CC3)cc21; satisfied

Is 5 µg/mL strictly greater than the compound's reported CC50? compound: Cn1cc(C(=O)O)c(=O)c2ccc(N3CCN(c4nc5ccccc5o4)CC3)cc21
not satisfied

Is 5 µg/mL strictly greater than the compound's reported CC50? compound: Cn1cc(C(=O)O)c(=O)c2ccc(N3CCN(c4nccs4)CC3)cc21
not satisfied

Is 5 µg/mL strictly greater than the compound's reported CC50? compound: Nc1cc2c(=O)c(C(=O)O)c[nH]c2cc1N1CCN(c2nc3ccccc3o2)CC1
satisfied

Is 5 µg/mL strictly greater than the compound's reported CC50? compound: Cn1cc(C(=O)O)c(=O)c2cc(N)c(N3CCN(c4ccc5ccccc5n4)CC3)cc21
satisfied

Is 5 µg/mL strictly greater than the compound's reported CC50? compound: Cn1cc(C(=O)O)c(=O)c2ccc(N3CCN(c4ccccn4)CC3)cc21
not satisfied

Is 5 µg/mL strictly greater than the compound's reported CC50? compound: Nc1cc2c(=O)c(C(=O)O)c[nH]c2cc1N1CCN(c2nccs2)CC1
not satisfied

Is 5 µg/mL strictly greater than the compound's reported CC50? compound: Nc1cc2c(=O)c(C(=O)O)c[nH]c2cc1N1CCN(c2ccccn2)CC1
satisfied

Is 5 µg/mL strictly greater than the compound's reported CC50? compound: Cn1cc(C(=O)O)c(=O)c2ccc(N3CCN(c4cnccn4)CC3)cc21
not satisfied
